Molecular target: Drosophila OR10a (Drosophila melanogaster)
Construct: expressed in transfected cells
Sequence (Q9VYZ1 1-406): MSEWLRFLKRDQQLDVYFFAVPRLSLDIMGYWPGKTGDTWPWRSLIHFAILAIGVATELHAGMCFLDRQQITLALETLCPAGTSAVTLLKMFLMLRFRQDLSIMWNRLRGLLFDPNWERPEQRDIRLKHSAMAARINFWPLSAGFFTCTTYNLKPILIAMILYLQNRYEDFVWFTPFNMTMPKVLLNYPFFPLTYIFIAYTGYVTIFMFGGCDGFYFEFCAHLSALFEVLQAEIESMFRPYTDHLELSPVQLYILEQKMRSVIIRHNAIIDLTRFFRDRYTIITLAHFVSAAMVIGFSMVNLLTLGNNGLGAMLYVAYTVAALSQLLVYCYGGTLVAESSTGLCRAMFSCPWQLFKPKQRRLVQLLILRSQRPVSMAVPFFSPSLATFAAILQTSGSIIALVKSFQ
Sequence (Q9VNB5 1-486 partner): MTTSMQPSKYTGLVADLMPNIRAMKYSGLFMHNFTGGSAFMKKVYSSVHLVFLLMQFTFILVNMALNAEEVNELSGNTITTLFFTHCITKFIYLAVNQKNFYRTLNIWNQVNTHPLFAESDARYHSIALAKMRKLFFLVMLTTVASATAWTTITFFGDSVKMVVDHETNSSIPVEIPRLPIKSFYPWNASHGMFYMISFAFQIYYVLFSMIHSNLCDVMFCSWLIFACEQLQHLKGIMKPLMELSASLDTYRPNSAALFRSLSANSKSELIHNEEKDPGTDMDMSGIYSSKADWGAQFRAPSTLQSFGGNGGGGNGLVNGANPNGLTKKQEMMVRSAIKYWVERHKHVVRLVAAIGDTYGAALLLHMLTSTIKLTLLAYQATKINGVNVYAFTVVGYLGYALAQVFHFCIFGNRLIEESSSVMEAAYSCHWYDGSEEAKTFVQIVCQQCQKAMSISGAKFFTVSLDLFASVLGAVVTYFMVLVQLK
Test: Calcium ion fluorescence (GCaMP6) assay, OR10a stable HEK293 cell line
Format: cell-based
Conditions: concentration 100; normalized fluorescence change, values below 0.05 threshold given as 0
Each item that follows carries a reported DF norm AVERAGE OR10a.
Write the value as a bare number.

Example results:
1. CC1=CCC2C(C1)C2(C)C (stereo not shown): 0
2. CCCCC(C)=O: 0

INPUT: Endpoint output: DF norm AVERAGE OR10a of C=C1CC[C@H]2O[C@]2(C)CC[C@@H]2[C@@H]1CC2(C)C [(-)-caryophyllene oxide] . Value?
OUTPUT: 0

INPUT: Consider the molecule shown here: CCCCCC(O)CC (stereo not shown) What is its recorded DF norm AVERAGE OR10a?
OUTPUT: 0.05921

* * *

biological target: Drosophila OR47a (Drosophila melanogaster, UniProt P81921); construct: expressed in transfected cells; experiment: Calcium ion fluorescence (GCaMP6) assay, OR47a stable HEK293 cell line; type: cell-based; conditions: ligand concentration 10 (unit not given); 0.05 threshold, values below shown as 0
Sequence (P81921 whole entry, one chain of several): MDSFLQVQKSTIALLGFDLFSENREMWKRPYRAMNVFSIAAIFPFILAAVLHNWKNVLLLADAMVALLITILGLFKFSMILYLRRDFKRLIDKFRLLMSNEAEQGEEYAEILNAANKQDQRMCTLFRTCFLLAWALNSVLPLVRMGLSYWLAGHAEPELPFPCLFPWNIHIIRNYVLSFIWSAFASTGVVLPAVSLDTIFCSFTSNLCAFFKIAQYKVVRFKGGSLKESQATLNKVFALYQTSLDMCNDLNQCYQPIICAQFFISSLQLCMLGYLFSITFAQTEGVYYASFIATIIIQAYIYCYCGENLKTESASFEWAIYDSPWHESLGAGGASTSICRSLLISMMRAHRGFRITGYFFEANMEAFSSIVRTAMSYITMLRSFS
# key: entry, value: DF norm AVERAGE OR47a
// return a plain number; no unit text

Below, each entry is followed by its recorded DF norm AVERAGE OR47a result.
1) CC1=CCC23CC1C(C)(C)C2CCC3C (stereo not shown): 0
2) Cc1ccccc1: 0
3) C=Cc1ccccc1: 0
4) CC/C=C\CCO: 0.0571
5) CCCCCCCCCCCCCC: 0

INPUT: Recorded DF norm AVERAGE OR47a for CC/C=C\CCOC(C)=O [z3-hexenyl acetate] , please?
OUTPUT: 0.669

INPUT: Dear colleague, I am looking for the recorded DF norm AVERAGE OR47a of the following molecule: `CCCCCCCCCCC`
OUTPUT: 0
